assay comment: qHTS Screen of the MIPE 4.0 Collection Against Ewings Sarcoma (TC32) (AID 1259256); also: nearly all actives have a fitted effect of over 45% in size
condition info: TC32 Ewing sarcoma viability, CellTiter-Glo, 48 h; series mostly up to 45.8 µM
Inconclusive results are not listed. The source made the active and inactive calls. Calls follow the shape of the dose curve; as a rule, active = well fitted inhibition curve with a large enough effect; inconclusive = small, poorly fitted or top-dose-only effect; inactive = no such curve, though single readings can be large or run the other way.
Outcomes: active, inactive

compound | label
Cc1nc2cnc3ccc(C#Cc4cccnc4)cc3c2n1-c1ccc(C(C)(C)C#N)cc1 | active
O=C(NCCCNc1nc(Nc2cccc(NC(=O)N3CCCC3)c2)ncc1I)c1cccs1 | active
CC1(C)OC2=C(C(=O)c3ccccc3C2=O)[C@H](NCc2ccccc2)[C@H]1O | active
COc1cc2c(Oc3ccc(-c4cnc(Nc5ccc(F)cc5)n(C)c4=O)cc3F)ccnc2cc1OCCCN1CCOCC1 | active
CNC(=O)c1ccc(N2C(=S)N(c3cnc(C#N)c(C(F)(F)F)c3)C(=O)C23CCC3)cc1F | active
Clc1cccc(-n2nnnc2NCc2ccccc2Oc2ccccn2)c1Cl | inactive
CC(C)(C)OC(=O)Nc1ccc(-c2cc(C(=O)NCCCCCCC(=O)NO)no2)cc1 | active
O=C1CCC[C@@H]2[C@H]3CCC[N+]4([O-])CCC[C@@H](CN12)[C@@H]34 (some centres undefined) | inactive
CCN1CCN(CC(=O)Nc2ccc(-c3cccc4c(=O)cc(N5CCOCC5)oc34)c3sc4ccccc4c23)CC1 | active
